assay.summary: Cytotoxicity against MDCK cells assessed as reduction in cell viability after 24 hrs by MTT assay
Assay type: cell-based, Canis lupus familiaris
measurement.parameters: dog
CC50 at 24 h: recorded values

N#CCCN(Cc1ccc[nH]1)S(=O)(=O)c1ccc(Br)cc1 > 181 µM
N#CCCN(Cc1ccco1)S(=O)(=O)c1ccc(C#N)cc1 > 212 µM
N#CCCN(Cc1ccccc1)S(=O)(=O)c1ccc(F)cc1 > 210 µM

Now let's try a different one.
I'd like to know its CC50 at 24 h. The molecule in question is `N#CCCN(Cc1cccs1)S(=O)(=O)c1cccc(F)c1`
> 206 µM
